Provenance of the data: patent US4837223A

protocol.description: Toxicity, LD50 after intravenous administration, rat
measurement.parameters: in vivo, male rat

| molecule | readout.unit | LD50 |
| --- | --- | --- |
| CC[C@@H](C(N)=O)N1CCCC1=O | mg/kg | 1040 |
| CCC(C(N)=O)N1CCCC1=O (racemic) [A, reference compound] | mg/kg | 1500 |
